Hello, the source for this data is patent US20240409536A1, in case you need it.

Known pIC50 of a selection of molecules
Test system: HiBiT-tagged MYB protein
Experiment: HiBiT protein abundance assay, MYB (K562 HiBiT knock-in cells)
Type: cell-based, human
Conditions: 24 hours
pIC50: −log10 of the molar value. Structures can show the parent of a compound that is named as a salt.
quantity kind: pIC50

>>> result("Cc1cn2cc(NC(=O)c3ccc(N4CCNC5(CC5)C4)c4nccnc34)cc(F)c2n1")
"> 7.00"
>>> result("Cc1cnc2c(N3CCC(N(C)C)CC3)ccc(C(=O)Nc3cc(F)c4nc(C)cn4c3)c2n1")
"> 7.00"
>>> result("CNC1CCN(c2ccc(C(=O)Nc3cc(F)c4nc(C)cn4c3)c3nc(C)ccc23)C1 (stereo not drawn) [Compound 196, 2,2,2-trifluoroacetate]")
"> 7.00"
>>> result("COc1ccc2c(N3C[C@@H](C)N[C@@H](C)C3)ccc(C(=O)Nc3cc(F)c4nc(C)cn4c3)c2n1")
"> 7.00"
>>> result("Cc1cn2cc(NC(=O)c3ccc(N4CCN5CCC[C@H]5C4)c4ccnnc34)cc(F)c2n1")
"> 7.00"
>>> result("COCCOc1ccc2c(N3CCNCC3)ccc(C(=O)Nc3cc(F)c4nc(C)cn4c3)c2n1")
"> 7.00"
>>> result("Cc1cn2cc(NC(=O)c3ccc(N4CCNC5(COC5)C4)c4nccnc34)cc(F)c2n1")
"5.00 to 6.00"
>>> result("Cc1cn2cc(NC(=O)c3ccc(N4CC[C@@H](N)C4)c4nccnc34)cc(F)c2n1")
"6.00 to 7.00"
>>> result("COc1cnc2c(C(=O)Nc3cc(F)c4nc(C)cn4c3)ccc(N3CCC(N(C)C)CC3)c2n1")
"> 7.00"
>>> result("Cc1cn2cc(NC(=O)c3ccc(N4CCNCC4)c4nnccc34)cc(F)c2n1 [Compound 166, 2,2,2-trifluoroacetate]")
"< 5.00"
>>> result("Cc1cn2nc(NC(=O)c3ccc(N4CCNCC4)c4ccnnc34)nc2c(C)n1")
"5.00 to 6.00"
>>> result("Cc1cn2cc(NC(=O)c3ccc(N4CCNCC4)c4ccnnc34)[nH]c(=O)c2n1 [Compound 177, trifluoroacetic acid salt]")
"6.00 to 7.00"
>>> result("Cc1cn2cc(NC(=O)c3ccc(N4CCNCC4)c4nccnc34)cc(F)c2n1")
"> 7.00"
>>> result("Cc1cn2cc(NC(=O)c3ccc(N4CCNCC4)c4ccnnc34)cc(C)c2n1")
"6.00 to 7.00"
>>> result("Cc1cn2cc(NC(=O)c3ccc(N4CCN(CCO)C5(CC5)C4)c4nccnc34)cc(F)c2n1")
"6.00 to 7.00"
>>> result("Cc1cn2cc(NC(=O)c3ccc(N4CCN[C@@H](CF)C4)c4nccnc34)cc(F)c2n1")
"5.00 to 6.00"
>>> result("Cc1cn2cc(NC(=O)c3ccc(N4C[C@H](C)NC5(CC5)C4)c4nccnc34)cc(F)c2n1")
"6.00 to 7.00"
>>> result("Cc1cn2cc(NC(=O)c3ccc(N4CCNCC4)c4ccnnc34)cc(C(C)O)c2n1 (stereo not drawn) [Compound 182, trifluoroacetate]")
"< 5.00"
>>> result("Cc1cnc2c(C(=O)Nc3cc(F)c4nc(C)cn4c3)ccc(N3C[C@@H](C)N[C@@H](C)C3)c2n1")
"> 7.00"
>>> result("Cc1cn2cc(NC(=O)c3ccc(N4CC(C)(C)NC(C)(C)C4)c4nccnc34)cc(F)c2n1")
"> 7.00"
>>> result("COc1nc(NC(=O)c2ccc(N3C[C@@H](C)N[C@@H](C)C3)c3nccnc23)cc2cn(C)nc12")
"6.00 to 7.00"
>>> result("O=C(Nc1cn[nH]c1)c1ccc(N2CCNCC2)c2ccnnc12")
"< 5.00"
>>> result("COc1nc(NC(=O)c2ccc(N3C[C@@H](C)N[C@@H](C)C3)c3nccnc23)cn2cc(C)nc12")
"> 7.00"
>>> result("COCCOc1ccc2c(N3C[C@@H](C)N[C@@H](C)C3)ccc(C(=O)Nc3cc(F)c4nc(C)cn4c3)c2n1")
"> 7.00"
>>> result("COc1cc2c(N3C[C@@H](C)N[C@@H](C)C3)ccc(C(=O)Nc3cc(F)c4nc(C)cn4c3)c2nn1")
"6.00 to 7.00"
>>> result("CN[C@@H]1CCN(c2ccc(C(=O)Nc3cc(F)c4nc(C)cn4c3)c3nccnc23)C1 (single isomer, unassigned)")
"> 7.00"
>>> result("Cc1cn2cc(NC(=O)c3ccc([C@H]4CCNC4)c4nccnc34)cc(F)c2n1")
"6.00 to 7.00"
>>> result("COc1cnc2c(C(=O)Nc3cc(F)c4nc(C)cn4c3)ccc(N3C[C@@H](C)N[C@@H](C)C3)c2n1")
"> 7.00"
>>> result("Cc1cn2cc(NC(=O)c3ccc(C4CCNCC4)c4nccnc34)cc(F)c2n1")
"6.00 to 7.00"
>>> result("Cc1cn2cc(NC(=O)c3ccc(N4C[C@@H](C)N[C@@H](C)C4)c4ccnnc34)cc(F)c2n1 [Compound 161, 2,2,2-trifluoroacetate]")
"> 7.00"
